target: transcriptional switch components containing FKBP and 2098L mutant FRB domains (Homo sapiens, UniProt P42345+P62942); construct: transcriptional switchcomponents containing FKBP and 2098L mutant FRB domains, respectively; fused on or other part: The two switch components are separate chimeric proteins; Neither is given for this cell line; experiment: transcription assay in engineered HD1080 cells expressing SEAP (txn 2098L); type: cell-based; details: cellular transcription assay, methods of Example 2.5; read-out: TXN 2098L EC50
Sequence (P62942 2-108 limits assumed, stated change not applied, other chains not shown): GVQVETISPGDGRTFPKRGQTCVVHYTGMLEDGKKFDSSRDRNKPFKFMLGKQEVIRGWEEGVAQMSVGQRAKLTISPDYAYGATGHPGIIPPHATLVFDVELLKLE
ENDPOINT: EC50
Don't forget the unit after the number, please.

- COMPOUND: "COC1CC(CC(C)C2CC(=O)C(C)C=C(C)C(O)C(OC)C(=O)C(C)CC(C)C=CC=CC=C(C)C(NC(=O)Oc3ccccc3)CC3CCC(C)C(O)(O3)C(=O)C(=O)N3CCCCC3C(=O)O2)CCC1O (stereo not drawn) [28-epi-7S-phenylcarbamate]"
  EC50: "14 nM"

Okay, next one:
Task: // returns reported EC50 for input CO[C@@H]1C[C@H](C[C@@H](C)[C@@H]2CC(=O)[C@H](C)/C=C(\C)[C@H](O)[C@@H](OC)C(=O)[C@H](C)C[C@H](C)/C=C/C=C/C=C(\C)[C@@H](NC(=O)OCc3ccccc3)C[C@@H]3CC[C@@H](C)[C@@](O)(O3)C(=O)C(=O)N3CCCC[C@H]3C(=O)O2)CC[C@H]1O [28-epi-7S-benzylcarbamate]
Result: 15 nM
